Data provenance is patent US20240262832A1.

Target: GCase (Homo sapiens, UniProt P04062)
Construct: endogenous in cells
Sequence (P04062 40-536): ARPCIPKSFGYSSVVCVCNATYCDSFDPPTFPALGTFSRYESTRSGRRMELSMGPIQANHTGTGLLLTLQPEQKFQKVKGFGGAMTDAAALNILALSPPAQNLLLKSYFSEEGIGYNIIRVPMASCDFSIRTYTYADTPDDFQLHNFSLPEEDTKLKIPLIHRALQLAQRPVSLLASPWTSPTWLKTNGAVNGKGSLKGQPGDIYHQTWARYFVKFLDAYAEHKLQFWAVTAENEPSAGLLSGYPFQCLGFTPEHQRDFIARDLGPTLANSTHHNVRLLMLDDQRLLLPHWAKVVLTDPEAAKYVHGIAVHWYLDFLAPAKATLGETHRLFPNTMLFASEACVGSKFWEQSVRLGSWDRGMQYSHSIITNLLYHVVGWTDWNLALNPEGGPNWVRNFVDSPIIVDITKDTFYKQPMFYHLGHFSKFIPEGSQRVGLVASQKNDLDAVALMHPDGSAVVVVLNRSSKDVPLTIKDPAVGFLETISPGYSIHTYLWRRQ
Assay: activation of GCase in a live cell PFB assay in HELA cells
Measurement label: EC50

Recorded results for 4 molecules are shown here.
| Molecule | Test result |
| --- | --- |
| FC(F)(F)c1ncccc1OC[C@@H]1[C@H]2CN(c3cnc4cnn(C5COC5)c4n3)C[C@@H]12 | > 100 µM |
| COc1ccc(OCC2CCN(CC(=O)Nc3cn(C)nc3C)CC2)cc1 | 10 to 50 µM |
| C[C@@H]1CC[C@H](COc2ccc(C(F)(F)F)nc2)CN1c1cnc2cnn(CC(F)F)c2n1 | 10 to 50 µM |
| COc1ccc(OCC2CCN(Cc3cc(C)no3)CC2)cc1 | > 100 µM |

Take each entry in turn and give its EC50.
1. O=C(N1CCCC(COc2ccccc2)C1)C12CC3CC(CC(C3)C1)C2 (stereo not drawn)
2. CCc1nc(CN2CCC(COc3ccc(OC)cc3)CC2)no1
3. COc1ccc(OCC2CCN(C(=O)Cc3ccccn3)CC2)cc1
4. Cn1c(-c2ccccc2)c(C(=O)N2CCCC(COc3ccccc3OC(F)(F)F)C2)c2nccnc21 (stereo not drawn)

10 to 50 µM
> 100 µM
> 100 µM
10 to 50 µM

Report EC50 for each item below.
1. CC1CC(COc2cccnc2C(F)(F)F)CN(c2cncc(-c3nncs3)n2)C1 (single isomer, unassigned) [Compound 262b]
2. COC1(C(=O)N2CCCC(COc3ccccc3)C2)CCCCCCC1 (stereo not drawn)
3. CC(C)c1cc(C(=O)N2CCCC(COc3ccccc3)C2)c(C(C)C)o1 (stereo not drawn)
4. O=C(N1CCC(Oc2ccc(C(F)(F)F)cn2)CC1)C1(c2ccccc2)CCOCC1

< 10 µM
10 to 50 µM
< 10 µM
10 to 50 µM
